Target: Androgen receptor (Homo sapiens, UniProt P10275)
Sequence (P10275 whole entry): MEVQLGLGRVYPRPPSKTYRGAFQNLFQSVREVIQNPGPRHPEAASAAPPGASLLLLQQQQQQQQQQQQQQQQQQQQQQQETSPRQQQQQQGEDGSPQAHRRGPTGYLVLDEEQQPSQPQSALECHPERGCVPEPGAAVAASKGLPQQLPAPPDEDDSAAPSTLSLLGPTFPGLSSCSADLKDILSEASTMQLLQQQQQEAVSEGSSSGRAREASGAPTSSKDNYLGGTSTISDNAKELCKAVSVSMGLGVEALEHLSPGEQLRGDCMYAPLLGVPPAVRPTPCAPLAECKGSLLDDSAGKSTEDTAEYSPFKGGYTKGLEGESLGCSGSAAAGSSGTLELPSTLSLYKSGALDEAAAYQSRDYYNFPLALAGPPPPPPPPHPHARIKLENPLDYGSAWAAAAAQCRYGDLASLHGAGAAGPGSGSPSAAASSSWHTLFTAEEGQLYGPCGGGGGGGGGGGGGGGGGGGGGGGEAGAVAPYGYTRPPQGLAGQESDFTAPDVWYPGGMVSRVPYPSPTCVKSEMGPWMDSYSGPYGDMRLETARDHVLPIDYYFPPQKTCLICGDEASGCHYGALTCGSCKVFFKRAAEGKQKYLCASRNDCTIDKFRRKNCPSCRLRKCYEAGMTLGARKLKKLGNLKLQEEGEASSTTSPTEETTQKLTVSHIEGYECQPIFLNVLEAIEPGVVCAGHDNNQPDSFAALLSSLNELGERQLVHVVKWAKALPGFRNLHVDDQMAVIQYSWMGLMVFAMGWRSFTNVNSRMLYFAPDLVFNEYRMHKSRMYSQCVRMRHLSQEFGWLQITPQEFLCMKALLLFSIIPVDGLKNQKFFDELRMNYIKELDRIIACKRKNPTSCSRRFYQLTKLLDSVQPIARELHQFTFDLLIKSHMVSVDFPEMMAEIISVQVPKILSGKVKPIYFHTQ
Assay: biochemical
Description: In vitro binding affinity at human androgen receptor transfected into COS cells.
// reported IC50 for each item listed

compound | IC50, nM
CC[C@@H]1c2cc3c(C(F)(F)F)cc(=O)oc3cc2NC[C@H]1C (relative stereo) | 0.3
CC1(C)CCc2cc3c(C(F)(F)F)cc(=O)oc3cc2N1 | 1
CCC1CCc2cc3c(C(F)(F)F)cc(=O)oc3cc2N1 (stereo not given) | 1
CCC1CCN(C)c2cc3oc(=O)cc(C(F)(F)F)c3cc21 (stereo not given) | 276
CCCC1CCNc2cc3oc(=O)cc(C(F)(F)F)c3cc21 (stereo not given) | 5
CC[C@H]1C[C@@H](C)Nc2cc3oc(=O)cc(C(F)(F)F)c3cc21 (relative stereo) | 12
O=c1cc(C(F)(F)F)c2cc3c(cc2o1)NCCC3C(F)(F)C(F)(F)F (stereo not given) | 5
CC[C@H]1c2cc3c(C(F)(F)F)cc(=O)oc3cc2NC[C@H]1C (relative stereo) | 2
CCC1CC(CC)c2cc3c(C(F)(F)F)cc(=O)oc3cc2N1 (trans isomer) | 7
CC1CCNc2cc3oc(=O)cc(C(F)(F)F)c3cc21 (stereo not given) | 1

* * *

Target: Progesterone receptor (Homo sapiens, UniProt P06401)
Sequence (P06401 whole entry): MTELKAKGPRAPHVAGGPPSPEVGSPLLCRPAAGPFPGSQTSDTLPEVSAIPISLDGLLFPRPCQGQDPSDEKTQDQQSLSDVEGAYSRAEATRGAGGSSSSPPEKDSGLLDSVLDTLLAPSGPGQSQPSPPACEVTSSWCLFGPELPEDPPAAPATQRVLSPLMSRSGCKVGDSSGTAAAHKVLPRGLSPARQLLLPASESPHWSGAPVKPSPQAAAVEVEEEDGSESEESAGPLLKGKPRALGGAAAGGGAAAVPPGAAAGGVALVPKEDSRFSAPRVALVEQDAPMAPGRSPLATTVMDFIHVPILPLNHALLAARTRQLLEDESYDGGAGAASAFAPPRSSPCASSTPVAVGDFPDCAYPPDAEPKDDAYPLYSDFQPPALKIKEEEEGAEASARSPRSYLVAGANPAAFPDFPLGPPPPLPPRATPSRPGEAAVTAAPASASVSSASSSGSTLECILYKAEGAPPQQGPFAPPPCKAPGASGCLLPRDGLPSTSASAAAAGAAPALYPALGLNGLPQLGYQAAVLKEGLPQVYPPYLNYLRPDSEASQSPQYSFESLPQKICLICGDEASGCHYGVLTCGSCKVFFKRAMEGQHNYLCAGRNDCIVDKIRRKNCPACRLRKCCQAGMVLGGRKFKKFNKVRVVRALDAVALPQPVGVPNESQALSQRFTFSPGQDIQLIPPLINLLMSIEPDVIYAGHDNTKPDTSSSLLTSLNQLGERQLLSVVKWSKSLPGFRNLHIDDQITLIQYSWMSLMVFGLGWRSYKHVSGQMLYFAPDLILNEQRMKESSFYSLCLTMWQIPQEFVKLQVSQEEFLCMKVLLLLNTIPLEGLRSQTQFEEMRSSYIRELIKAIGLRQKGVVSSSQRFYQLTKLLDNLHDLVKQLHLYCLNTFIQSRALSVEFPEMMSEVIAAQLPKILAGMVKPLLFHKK
Test: In vitro antagonistic activity against human progesterone receptor (hPR)
valueKind: IC50 (nM)

compound | measValue
CCCC1CCNc2cc3oc(=O)cc(C(F)(F)F)c3cc21 (stereo not given) | 106
CC[C@@H]1c2cc3c(C(F)(F)F)cc(=O)oc3cc2NC[C@H]1C (relative stereo) | 130
CC[C@H]1c2cc3c(C(F)(F)F)cc(=O)oc3cc2NC[C@H]1C (relative stereo) | 130
CC1(C)CCc2cc3c(C(F)(F)F)cc(=O)oc3cc2N1 | 570
CC1CCNc2cc3oc(=O)cc(C(F)(F)F)c3cc21 (stereo not given) | 280
CCC1CCNc2cc3oc(=O)cc(C(F)(F)F)c3cc21 (stereo not given) | 200
CC[C@@H]1CNc2cc3oc(=O)cc(C(F)(F)F)c3cc2[C@H]1CC (stereo in doubt) | 65
CC1=CC(C)(C)Nc2cc3oc(=O)cc(C(F)(F)F)c3cc21 | 100
CCC1Nc2cc3oc(=O)cc(C(F)(F)F)c3cc2CC1C (stereo not given) | 440
O=c1cc(C(F)(F)F)c2cc3c(cc2o1)NCCC3C(F)(F)F (stereo not given) | 270

* * *

Biological target: Androgen receptor (Homo sapiens, UniProt P10275)
pEC50: −log10 of the molar value.
// reported pEC50 for each item listed

molecule | pEC50
CCC1CCN(C)c2cc3oc(=O)cc(C(F)(F)F)c3cc21 (centres undefined) | 6.68
CCC1CCc2cc3c(C(F)(F)F)cc(=O)oc3cc2N1 (centres undefined) | 8.15
CCC1CC(C)c2cc3c(C(F)(F)F)cc(=O)oc3cc2N1 (cis isomer) | 8.10
CCC1Nc2cc3oc(=O)cc(C(F)(F)F)c3cc2CC1C (centres undefined) | 9.00
CC1CCNc2cc3oc(=O)cc(C(F)(F)F)c3cc21 (centres undefined) | 8.70
O=c1cc(C(F)(F)F)c2cc3c(cc2o1)NCCC3C(F)(F)F (centres undefined) | 8.70
CC[C@@H]1c2cc3c(C(F)(F)F)cc(=O)oc3cc2NC[C@H]1C (relative stereo) | 9.00
CCC1CCNc2cc3oc(=O)cc(C(F)(F)F)c3cc21 (centres undefined) | 8.70
CC[C@H]1C[C@@H](C)Nc2cc3oc(=O)cc(C(F)(F)F)c3cc21 (relative stereo) | 7.57
O=c1cc(C(F)(F)F)c2cc3c(cc2o1)NCCC3C(F)(F)C(F)(F)F (centres undefined) | 7.89
CC[C@@H]1CNc2cc3oc(=O)cc(C(F)(F)F)c3cc2[C@H]1CC (stereo in doubt) | 8.30
CC[C@H]1c2cc3c(C(F)(F)F)cc(=O)oc3cc2NC[C@H]1C (relative stereo) | 8.15
CCCC1CCNc2cc3oc(=O)cc(C(F)(F)F)c3cc21 (centres undefined) | 8.30
CC[C@H]1CNc2cc3oc(=O)cc(C(F)(F)F)c3cc2[C@@H]1CC (stereo in doubt) | 8.30
